- Tested on: B16 (melanoma)
- assay overview: MTT cytotoxicity assay, B16
- Assay type: cell-based
- experimental setup: 48 h of drug treatment (footnote), average of three experiments
assay readout: IC50 (µM)
All answers are understood in µM, so give the number only.

| compound | tested system | value reported |
| --- | --- | --- |
| COc1cc(/C=C/C(=O)NCc2cc3c([nH]c4ccccc43)c(-c3cccc(F)c3)n2)cc(OC)c1OC [Compound 1a] | B16 (melanoma) | 0.0198 |
| COc1ccc(-c2nc(CNC(=O)/C=C/c3cccc(O)c3)cc3c2[nH]c2ccccc23)cc1 [Compound 3h] | B16 (melanoma) | 0.0163 |
| COc1ccc(-c2nc(CNC(=O)/C=C/c3cc(F)cc(F)c3)cc3c2[nH]c2ccccc23)cc1 [Compound 3d] | B16 (melanoma) | 0.0239 |

Exam item: Fill blank: measured IC50 of the compound O=C(/C=C/c1cc(F)cc(F)c1)NCc1cc2c([nH]c3ccccc32)c(-c2cccc(F)c2)n1 [Compound 1d] is ____.
Marked response: 0.0182

Exam item: Record request: IC50 value, item COc1cc(-c2nc(CNC(=O)/C=C/c3cc(F)cc(F)c3)cc3c2[nH]c2ccccc23)cc(OC)c1OC [Compound 2d]
Marked response: 0.0241

Exam item: I am curious: what IC50 value has been reported for COc1cc(/C=C/C(=O)NCc2cc3c([nH]c4ccccc43)c(-c3cc(OC)c(OC)c(OC)c3)n2)cc(OC)c1OC [Compound 2a] ?
Marked response: 0.0172

Exam item: Consider the compound shown here: COc1cc(-c2nc(CNC(=O)/C=C/c3ccc(Cl)c(Cl)c3)cc3c2[nH]c2ccccc23)cc(OC)c1OC [Compound 2b] What is its recorded IC50?
Marked response: 0.0169

Exam item: Fill in the blank: the reported IC50 of COc1ccc(-c2nc(CNC(=O)/C=C/c3cc(OC)ccc3OC)cc3c2[nH]c2ccccc23)cc1 [Compound 3e] is ____.
Marked response: 0.0221
